Hi there, I'd appreciate the recorded Fold (BLI enhancement, S/B ratio over control) for every entry that follows.
Target: ABCG2 (Homo sapiens, UniProt Q9UNQ0)
Sequence (Q9UNQ0 whole entry): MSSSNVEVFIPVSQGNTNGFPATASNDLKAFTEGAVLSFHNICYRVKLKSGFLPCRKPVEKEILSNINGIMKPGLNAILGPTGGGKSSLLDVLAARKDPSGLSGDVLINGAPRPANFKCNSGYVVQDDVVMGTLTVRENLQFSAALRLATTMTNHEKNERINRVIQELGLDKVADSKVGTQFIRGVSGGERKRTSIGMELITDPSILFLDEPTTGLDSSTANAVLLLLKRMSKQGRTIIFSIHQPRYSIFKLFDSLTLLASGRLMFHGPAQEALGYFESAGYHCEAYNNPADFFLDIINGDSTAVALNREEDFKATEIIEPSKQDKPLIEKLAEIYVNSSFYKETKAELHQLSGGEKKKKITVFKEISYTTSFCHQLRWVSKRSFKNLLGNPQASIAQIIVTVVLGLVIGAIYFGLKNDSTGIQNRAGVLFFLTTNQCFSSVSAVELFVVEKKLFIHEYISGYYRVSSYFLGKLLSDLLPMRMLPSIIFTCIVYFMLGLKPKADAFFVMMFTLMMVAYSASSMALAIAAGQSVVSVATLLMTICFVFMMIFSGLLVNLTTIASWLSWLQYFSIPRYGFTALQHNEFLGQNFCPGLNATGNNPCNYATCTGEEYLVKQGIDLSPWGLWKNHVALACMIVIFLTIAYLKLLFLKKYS
Test: Bioluminescence imaging (BLI) assay in HEK293/ABCG2/fLuc cells
Conditions: Table 2; HEK293/ABCG2/fLuc cells, compound approximately 17 μM, ~50 μg/mL D-luciferin, 40 min time point
Answers are plain numbers, in fold.

Item Cc1c2ccncc2c(C)c2c1[nH]c1ccccc12 [ellipticine] has what recorded Fold (BLI enhancement, S/B ratio over control)?
2.5

// lookup Fold (BLI enhancement, S/B ratio over control) for COc1ccc(CCN(C)CCCC(C#N)(c2cc(OC)c(OC)c(OC)c2)C(C)C)cc1OC (centres unmarked) [gallopamil]
2.4

Give its Fold (BLI enhancement, S/B ratio over control) value. Item: C[C@]12CC[C@@H]3c4ccc(O)cc4CC[C@H]3[C@@H]1CC[C@@H]2OC(=O)CCC1CCCC1 [estradiol cypionate]
3.6

I would be grateful if you could share the reported Fold (BLI enhancement, S/B ratio over control) for COc1ccc(C(=O)c2c(C)n(CCN3CCOCC3)c3ccccc23)cc1 [pravadoline] .
2.7

Would you mind telling me what Fold (BLI enhancement, S/B ratio over control) value was observed for COS(=O)(=O)[O-].C[n+]1c2ccccc2nc2ccccc21 [phenazine methosulfate] ?
2.8

Which value of Fold (BLI enhancement, S/B ratio over control) has been reported for COc1ccc2c3c([nH]c2c1)C(C)=NCC3 [harmaline] in the records?
8.8

Bench note: what Fold (BLI enhancement, S/B ratio over control) did COc1cc(-c2oc3cc(O)cc(O)c3c(=O)c2O)ccc1O [isorhamnetin] show?
7.0

Consider the record given below.
Fold (BLI enhancement, S/B ratio over control) lookup needed for CN1[C@@H]2CC[C@H]1C[C@@H](OC(c1ccccc1)c1ccccc1)C2.CS(=O)(=O)O [benztropin Methane-] , thanks.
2.0
